Study target: recombinant human ACC2 (Homo sapiens (Human), UniProt O00763)
Sequence (O00763 27-2458): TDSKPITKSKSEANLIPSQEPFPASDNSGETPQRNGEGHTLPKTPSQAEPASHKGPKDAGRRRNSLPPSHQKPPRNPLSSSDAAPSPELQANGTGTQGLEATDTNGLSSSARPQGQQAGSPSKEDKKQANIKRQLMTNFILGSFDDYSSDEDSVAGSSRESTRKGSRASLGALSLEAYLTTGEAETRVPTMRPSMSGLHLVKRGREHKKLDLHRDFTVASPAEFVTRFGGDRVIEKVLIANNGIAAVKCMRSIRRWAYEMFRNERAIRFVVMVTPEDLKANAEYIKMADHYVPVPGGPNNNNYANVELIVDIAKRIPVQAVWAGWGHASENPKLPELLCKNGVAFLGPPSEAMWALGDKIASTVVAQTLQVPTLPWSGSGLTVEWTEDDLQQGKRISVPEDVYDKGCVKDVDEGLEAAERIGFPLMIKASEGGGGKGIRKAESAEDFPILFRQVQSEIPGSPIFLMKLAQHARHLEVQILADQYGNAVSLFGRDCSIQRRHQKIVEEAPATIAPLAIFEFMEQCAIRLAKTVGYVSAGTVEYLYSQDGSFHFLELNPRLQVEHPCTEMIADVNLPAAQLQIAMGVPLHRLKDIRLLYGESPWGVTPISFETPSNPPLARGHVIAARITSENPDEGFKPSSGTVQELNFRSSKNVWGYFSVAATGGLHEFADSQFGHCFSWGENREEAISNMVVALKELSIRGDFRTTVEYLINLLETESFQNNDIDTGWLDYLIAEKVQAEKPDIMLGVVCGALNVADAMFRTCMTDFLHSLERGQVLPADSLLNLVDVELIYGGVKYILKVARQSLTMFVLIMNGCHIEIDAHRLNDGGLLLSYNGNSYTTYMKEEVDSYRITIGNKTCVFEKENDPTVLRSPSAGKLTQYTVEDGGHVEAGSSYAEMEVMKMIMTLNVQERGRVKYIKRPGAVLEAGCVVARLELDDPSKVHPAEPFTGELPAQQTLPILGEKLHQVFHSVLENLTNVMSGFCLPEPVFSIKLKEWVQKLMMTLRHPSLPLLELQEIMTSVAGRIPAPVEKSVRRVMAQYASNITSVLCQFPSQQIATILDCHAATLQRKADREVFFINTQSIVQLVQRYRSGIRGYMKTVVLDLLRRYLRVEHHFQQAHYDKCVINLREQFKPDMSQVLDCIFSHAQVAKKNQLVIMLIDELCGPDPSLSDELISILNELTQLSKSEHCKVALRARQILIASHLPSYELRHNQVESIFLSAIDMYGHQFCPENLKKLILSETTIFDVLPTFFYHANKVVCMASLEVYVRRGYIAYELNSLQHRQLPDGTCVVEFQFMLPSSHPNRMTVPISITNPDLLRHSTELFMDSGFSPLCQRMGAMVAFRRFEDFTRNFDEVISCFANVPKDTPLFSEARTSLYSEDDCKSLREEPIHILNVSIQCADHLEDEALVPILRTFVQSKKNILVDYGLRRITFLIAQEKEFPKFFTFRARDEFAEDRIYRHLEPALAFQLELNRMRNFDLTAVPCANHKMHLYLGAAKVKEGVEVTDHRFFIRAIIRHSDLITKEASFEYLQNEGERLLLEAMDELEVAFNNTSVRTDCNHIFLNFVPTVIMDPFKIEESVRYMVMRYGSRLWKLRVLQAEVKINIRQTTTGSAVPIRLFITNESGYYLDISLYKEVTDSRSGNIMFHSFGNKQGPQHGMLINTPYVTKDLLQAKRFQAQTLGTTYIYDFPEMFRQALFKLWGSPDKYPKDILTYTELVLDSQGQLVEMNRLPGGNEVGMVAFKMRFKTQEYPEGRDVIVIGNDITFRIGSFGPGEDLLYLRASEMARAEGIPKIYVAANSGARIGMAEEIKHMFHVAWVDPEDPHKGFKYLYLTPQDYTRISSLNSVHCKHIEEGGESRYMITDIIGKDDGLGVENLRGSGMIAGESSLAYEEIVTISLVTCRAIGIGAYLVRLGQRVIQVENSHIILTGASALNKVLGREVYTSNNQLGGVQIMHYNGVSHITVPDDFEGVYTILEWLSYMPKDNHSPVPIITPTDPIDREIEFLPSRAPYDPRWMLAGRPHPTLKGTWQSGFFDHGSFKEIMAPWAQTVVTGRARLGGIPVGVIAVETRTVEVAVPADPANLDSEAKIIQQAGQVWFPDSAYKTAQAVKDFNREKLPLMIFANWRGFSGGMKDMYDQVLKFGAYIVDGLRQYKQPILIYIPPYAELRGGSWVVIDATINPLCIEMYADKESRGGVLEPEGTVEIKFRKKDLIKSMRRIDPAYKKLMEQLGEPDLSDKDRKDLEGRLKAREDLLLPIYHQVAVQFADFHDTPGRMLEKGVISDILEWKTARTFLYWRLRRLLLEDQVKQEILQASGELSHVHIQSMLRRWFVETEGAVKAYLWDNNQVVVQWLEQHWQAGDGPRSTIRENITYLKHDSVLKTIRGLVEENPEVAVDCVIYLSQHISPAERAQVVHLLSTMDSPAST
Protocol summary: Measurement of inhibitory activity on human ACC2 (MALDI-TOF MS, acetyl CoA to malonyl CoA conversion)
Assay type: biochemical
Assay conditions: Tables 155-159
IC50 values, listed per item
Please report the result as a number followed by the unit.

Worked examples, 3 compounds total:
Compound	Study target	IC50
CC(=O)N[C@@H](C)CO[C@H]1CC[C@H](Oc2nc3c(F)cc(OCC(F)F)c(F)c3n2C)CC1 [Compound I-741]	recombinant human ACC2 (Homo sapiens (Human), UniProt O00763)	7 nM
CC(=O)N[C@@H](C)[C@@H](C)O[C@H]1CC[C@H](Oc2nc3c(F)cc(OCC(F)F)c(F)c3n2C)CC1 [Compound I-716]	recombinant human ACC2 (Homo sapiens (Human), UniProt O00763)	170 nM
CC(=O)N[C@@H](C)CO[C@H]1CC[C@H](Oc2ccc3nc(CCC4CC4)n(C)c3n2)CC1 [Compound I-514]	recombinant human ACC2 (Homo sapiens (Human), UniProt O00763)	32 nM

Which IC50 value is on record for CC(=O)N[C@@H](C)CO[C@H]1C[C@H](COc2ncnc(OCc3ccccc3)c2C)C1 [Compound I-415] ?
18 nM

====

Study target: recombinant human ACC2 (Homo sapiens (Human), UniProt O00763)
Protocol summary: Measurement of inhibitory activity on human ACC2 (MALDI-TOF MS, acetyl CoA to malonyl CoA conversion)
Type: biochemical
Assay conditions: Tables 155-159
Reported endpoint: pIC50
// pIC50 here means minus log10 of the molar concentration (mol/L)

Compound	Study target	pIC50
CC(=O)N[C@@H](C)CO[C@H]1CC[C@H](Oc2ccc3nc(OCC4(F)COC4)sc3c2F)CC1 [Compound I-120]	recombinant human ACC2 (Homo sapiens (Human), UniProt O00763)	7.66
CC(=O)N[C@@H](C)CO[C@H]1C[C@H](COc2ccc3nc(N(C)CC#N)sc3n2)C1 [Compound I-282]	recombinant human ACC2 (Homo sapiens (Human), UniProt O00763)	6.05
CC(=O)N[C@@H](C)CO[C@H]1C[C@H](COc2ccc3nc(OCC4CCO4)sc3n2)C1 (stereo partly shown) [Compound I-199]	recombinant human ACC2 (Homo sapiens (Human), UniProt O00763)	6.92
CC(=O)N[C@@H](C)CO[C@H]1CC[C@H](Oc2nc3c(F)cc(OC4CC4)c(F)c3n2C)CC1 [Compound I-611]	recombinant human ACC2 (Homo sapiens (Human), UniProt O00763)	8.52
CC(=O)N[C@@H](C)CO[C@H]1C[C@H](COc2ccc3nc(OCC4(F)COC4)sc3n2)C1 [Compound I-195]	recombinant human ACC2 (Homo sapiens (Human), UniProt O00763)	7.55

Which pIC50 value is on record for CC(=O)N[C@@H](C)CO[C@H]1C[C@H](COc2ccc3nc(OC4CCSC4)sc3n2)C1 (stereo partly shown) [Compound I-249] ?
8.10

Repeat with CCOc1nc2ccc(O[C@H]3CC[C@H](OC[C@H](C)NC(C)=O)CC3)nc2n1C [Compound I-491]
7.29

====

pIC50 values, listed per item
Study target: recombinant human ACC2 (Homo sapiens (Human))
Protocol summary: Measurement of inhibitory activity on human ACC2 (MALDI-TOF MS, acetyl CoA to malonyl CoA conversion)
Type: biochemical
Assay conditions: Tables 155-159
// pIC50 here means minus log10 of the molar concentration (mol/L)

Worked examples, 6 molecules total:
Molecule	pIC50
CC(=O)N[C@@H](C)CO[C@H]1C[C@H](COc2nccc(-c3ccc(F)cc3)c2C)C1	7.14
CC(=O)N[C@@H](C)CO[C@H]1CC[C@H](Oc2ncnc(OCc3ncc(Cl)s3)c2Cl)CC1	7.30
CC(=O)N[C@@H](C)CO[C@H]1C[C@H](COc2ncnc(OCC3CC3(F)F)c2Cl)C1 (stereo partly shown)	7.18
CC(=O)N[C@@H](C)CO[C@H]1C[C@H](COc2nccc(OCc3ccccc3)c2Cl)C1	8.15
CC(=O)N[C@@H](C)CO[C@H]1CC[C@H](Oc2nc3cnc(OCC(F)F)c(F)c3s2)CC1	7.89
CC(=O)N[C@@H](C)CO[C@H]1CC[C@H](Oc2nc3c(Br)cc(OCC(F)F)cc3n2C)CC1	6.85

With those in mind, consider the next molecule.
Which pIC50 value is on record for `CC(=O)N[C@@H](C)CO[C@H]1CC[C@H](Oc2nc3ccc(OC(C)C)c(F)c3n2C)CC1` ?
7.92
